Method: Volume of distribution at steady state in Wistar rat at 5 mg/kg, iv
Format: ADME, organism-based
Parameters: dose 5 mg/kg, route intravenous
Condition info: in vivo, read-out: Vdss
Quantity kind: Vd (L/kg)
Kindly answer with a numeric value in L/kg, unit omitted.

Assign Vd to the following record: O=C(CCCc1ccc2cccnc2n1)NCc1ccc(-c2cccc(Cl)c2)cc1 0.2

Assign Vd to the following record: O=C(CCCc1ccc2cccnc2n1)NCc1cc(-c2ccc(F)c(C(F)(F)F)c2)no1 0.36

Assign Vd to the following record: Cc1cccc(-c2ccc(CNC(=O)CCCc3ccc4cccnc4n3)cc2)c1 0.5

Assign Vd to the following record: FC(F)(F)c1cc(-c2nnc(CCCCc3ccc4cccnc4n3)o2)ccc1Cl 0.1

Assign Vd to the following record: FC(F)(F)Oc1ccc(-c2nnc(CCCCc3ccc4cccnc4n3)o2)cc1Cl 0.2

Assign Vd to the following record: C[C@H](NC(=O)CCCc1ccc2cccnc2n1)c1ccc(-c2cccc(Cl)c2)cc1 0.7

Assign Vd to the following record: Clc1cccc(-c2ccc(-c3nnc(CCCc4ccc5cccnc5n4)o3)cc2)c1 1.9

###

Method: Cmax in Wistar rat at 100 mg/kg, ip by LC/MS/MS analysis
Assay type: ADME, organism-based
Parameters: dose 100 mg/kg, route intraperitoneal
Condition info: in vivo
Quantity kind: Cmax (nM)
Kindly answer with a numeric value in nM, unit omitted.

Assign Cmax to the following record: C[C@H](NC(=O)Cc1ccc(-c2ccc3cccnc3n2)cc1)c1ccc(-c2ccc(F)c(C(F)(F)F)c2)cc1 400

###

Method: AUC (0 to 8 hrs) in Wistar rat plasma at 50 mg/kg, ip
Assay type: ADME, organism-based
Parameters: time < 8 hr, dose 50 mg/kg, route intraperitoneal
Quantity kind: AUC(0-t) at 8 h (µM·h)
Kindly answer with a numeric value in µM·h, unit omitted.

Assign AUC(0-t) at 8 h to the following record: O=C(CCCc1ccc2cccnc2n1)NCc1cc(-c2ccc(F)c(C(F)(F)F)c2)no1 267

Assign AUC(0-t) at 8 h to the following record: Cc1cccc(-c2ccc(CNC(=O)CCCc3ccc4cccnc4n3)cc2)c1 17.4

Assign AUC(0-t) at 8 h to the following record: O=C(CCCc1ccc2cccnc2n1)NCc1ccc(-c2cccc(Cl)c2)cc1 119

Assign AUC(0-t) at 8 h to the following record: FC(F)(F)c1cc(-c2nnc(CCCCc3ccc4cccnc4n3)o2)ccc1Cl 304

###

Test system: Liver microsomes
Method: Intrinsic clearance in rat liver microsomes preincubated for 5 mins before addition of NADPH measured after 30 mins by LC/MS/MS analysis
Assay type: ADME, Microsome
Condition info: 0.5 h
Quantity kind: Intrinsic clearance (nmol/min/mg)
Kindly answer with a numeric value in nmol/min/mg, unit omitted.

Find Intrinsic clearance for C[C@H](NC(=O)Cc1ccc(-c2ccc3cccnc3n2)cc1)c1ccc(-c2ccc(F)c(C(F)(F)F)c2)cc1 on Liver microsomes and write it down. 0.2

Find Intrinsic clearance for FC(F)(F)c1ccc(-c2nnc(CCCCc3ccc4cccnc4n3)o2)cc1C(F)(F)F on Liver microsomes and write it down. 0.3

Find Intrinsic clearance for O=C(Cc1ccc(-c2ccc3cccnc3n2)cc1)NCc1ccc(-c2ccc(F)c(Cl)c2)cc1 on Liver microsomes and write it down. 0.84

Find Intrinsic clearance for O=C(CCCc1ccc2cccnc2n1)NCc1ccc(-c2ccccc2)cc1 on Liver microsomes and write it down. 0.17

Find Intrinsic clearance for COC(=O)c1c(F)cccc1-c1ccc(CNC(=O)CCCc2ccc3cccnc3n2)c(F)c1 on Liver microsomes and write it down. 0.7

Find Intrinsic clearance for Cc1cccc(-c2ccc(CNC(=O)CCCc3ccc4cccnc4n3)cc2)c1 on Liver microsomes and write it down. 1.2

Find Intrinsic clearance for COc1cccc(-c2ccc(CNC(=O)CCCc3ccc4cccnc4n3)cc2)c1 on Liver microsomes and write it down. 0.6

Find Intrinsic clearance for NC(C(=O)NCc1ccc(-c2ccc(F)c(C(F)(F)F)c2)cc1)c1ccc(-c2ccc3cccnc3n2)cc1 (stereo unspecified) on Liver microsomes and write it down. 0.15

Find Intrinsic clearance for O=C(CCCc1ccc2cccnc2n1)NCc1cc(-c2ccc(F)c(Cl)c2)no1 on Liver microsomes and write it down. 0.11

Find Intrinsic clearance for Fc1ccc(-c2ccc(-c3nnc(CCCc4ccc5cccnc5n4)o3)cc2)cc1Cl on Liver microsomes and write it down. 0.2

Find Intrinsic clearance for Fc1ccc(-c2ccc(-c3nnc(CCCc4ccc5cccnc5n4)[nH]3)cc2)cc1Cl on Liver microsomes and write it down. 0.14

Find Intrinsic clearance for O=C(CCCc1ccc2cccnc2n1)NCc1ccc(-c2cccc(C(=O)O)c2)cc1 on Liver microsomes and write it down. 0.03

Find Intrinsic clearance for O=C(CCCc1ccc2cccnc2n1)NCc1ccc(-c2ccc(F)c(Cl)c2)cc1 on Liver microsomes and write it down. 0.2

Find Intrinsic clearance for FC(F)(F)c1cc(-c2nnc(CCCCc3ccc4cccnc4n3)o2)ccc1Cl on Liver microsomes and write it down. 0.3

Find Intrinsic clearance for C[C@H](NC(=O)C(O)(c1ccc(-c2ccc3cccnc3n2)cc1)C(F)(F)F)c1ccc(-c2ccc(F)c(C(F)(F)F)c2)cc1 (stereo partly specified) on Liver microsomes and write it down. 0.17

Find Intrinsic clearance for O=C(CCCc1ccc2cccnc2n1)NCc1ccc(-c2cccc(Cl)c2)cc1 on Liver microsomes and write it down. 0.22

Find Intrinsic clearance for O=C(CCCc1ccc2cccnc2n1)NCc1ccc(-c2cccc(C(F)(F)F)c2)cc1F on Liver microsomes and write it down. 0.34

Find Intrinsic clearance for O=C(CCCc1ccc2cccnc2n1)NCc1cnn(-c2ccc(F)c(C(F)(F)F)c2)c1 on Liver microsomes and write it down. 0.18

Find Intrinsic clearance for FC(F)(F)Oc1ccc(-c2nnc(CCCCc3ccc4cccnc4n3)o2)cc1Cl on Liver microsomes and write it down. 0.17

Find Intrinsic clearance for O=C(CCCc1ccc2cccnc2n1)NCc1cnc(-c2ccc(F)c(C(F)(F)F)c2)nc1 on Liver microsomes and write it down. 0.2

Find Intrinsic clearance for C[C@H](NC(=O)CCCc1ccc2cccnc2n1)c1ccc(-c2cccc(Cl)c2)cc1 on Liver microsomes and write it down. 0.42

Find Intrinsic clearance for O=C(Cc1ccc(-c2ccc3cccnc3n2)cc1)NCc1ccc(-c2ccc(F)c(C(F)(F)F)c2)cc1 on Liver microsomes and write it down. 0.28

Find Intrinsic clearance for O=C(NCc1ccc(-c2ccc(F)c(C(F)(F)F)c2)cc1)C(O)(c1ccc(-c2ccc3cccnc3n2)cc1)C(F)(F)F (stereo unspecified) on Liver microsomes and write it down. 0.2

Find Intrinsic clearance for C[C@H](NC(=O)C(O)c1ccc(-c2ccc3cccnc3n2)cc1)c1ccc(-c2ccc(F)c(C(F)(F)F)c2)cc1 (stereo partly specified) on Liver microsomes and write it down. 0.2

Find Intrinsic clearance for CS(=O)(=O)c1cccc(-c2ccc(CNC(=O)CCCc3ccc4cccnc4n3)cc2)c1 on Liver microsomes and write it down. 0.1

Find Intrinsic clearance for N#Cc1cccc(-c2ccc(CNC(=O)CCCc3ccc4cccnc4n3)cc2)c1 on Liver microsomes and write it down. 0.1
